# Tested on: NB14 (Neuroblastoma)
# Run description: combination Emax (second highest fraction inhibited in the dose matrix, 72 h); higher = more inhibition; extreme values may be limits of the assay
Reported property: combination Emax
Hey, just send me the number, nothing else.

Lookup: // combination Emax lookup, key: CCN(CCO)CCCOc1ccc2c(Nc3cc(CC(=O)Nc4cccc(F)c4)[nH]n3)ncnc2c1 [AZD2811] + C=CCn1c(=O)c2cnc(Nc3ccc(N4CCN(C)CC4)cc3)nc2n1-c1cccc(C(C)(C)O)n1 [AZD1775] (first compound max 1 µM, partner max 1 µM)
Found: 1

Lookup: Fill in the blank: the reported combination Emax of COc1cccc(OCCCN)c1-c1cc(Nc2cnc(C#N)cn2)n[nH]1 [Prexasertib] + CN(C)CCCOc1ccc(-c2ccc3ncc4c(c3c2)n(C2CCOCC2)c(=O)n4C)cn1 [AZD0156] (first compound max 1 µM, 7x7, partner max 1 µM) is ____.
Found: 1

Lookup: Quick one: combination Emax for CCc1c2c(nc3ccc(O)cc13)-c1cc3c(c(=O)n1C2)COC(=O)[C@]3(O)CC [SN-38] + CN(C)CCCOc1ccc(-c2ccc3ncc4c(c3c2)n(C2CCOCC2)c(=O)n4C)cn1 [AZD0156] (first compound max 0.3 µM, 7x7, partner max 1 µM) ?
Found: 0.918

Lookup: Query: combination Emax; subject: Cn1cnc2c(F)c(Nc3ccc(Br)cc3Cl)c(C(=O)NOCCO)cc21 [Selumetinib] + CCN(CCO)CCCOc1ccc2c(Nc3cc(CC(=O)Nc4cccc(F)c4)[nH]n3)ncnc2c1 [AZD2811] (first compound max 10 µM, 7x7, partner max 1 µM)
Found: 0.866

---

# System: EN (Endometrial Carcinoma)
# Run description: combination Emax (second highest fraction inhibited in the dose matrix, 72 h); higher = more inhibition; extreme values may be limits of the assay
Reported property: combination Emax

Lookup: Give the reported combination Emax for Cc1c2c(nn1C)CSCc1cc(n(C)n1)CSc1cc(c3ccccc3c1)OCCCc1c(C(=O)O)n(C)c3c-2c(Cl)ccc13 [AZD5991] + Cn1cnc2c(F)c(Nc3ccc(Br)cc3Cl)c(C(=O)NOCCO)cc21 [Selumetinib] (first compound max 1 µM, 7x7, partner max 3 µM) (system: EN (Endometrial Carcinoma)).
Found: 0.535

Lookup: Given the entry CC1(C)CCC(CN2CCN(c3ccc(C(=O)NS(=O)(=O)c4ccc(NCC5CCOCC5)c([N+](=O)[O-])c4)c(Oc4cnc5[nH]ccc5c4)c3)CC2)=C(c2ccc(Cl)cc2)C1 [Venetoclax] + C1CN(CCC1(C(=O)N[C@@H](CCO)C2=CC=C(C=C2)Cl)N)C3=NC=NC4=C3C=CN4 [Capivasertib] (first compound max 1 µM, 7x7, partner max 3 µM) , what combination Emax was observed with EN (Endometrial Carcinoma)?
Found: 0.554

Lookup: What reported combination Emax corresponds to COc1cc2ncnc(Nc3ccc(F)c(Cl)c3)c2cc1OCCCN1CCOCC1 [Gefitinib] + CC(C)n1c(=O)n(C)c2cnc3cc(F)c(-c4ccc(OCCCN5CCCCC5)nc4)cc3c21 [AZD1390] (first compound max 10 µM, 7x7, partner max 0.3 µM) on EN (Endometrial Carcinoma)?
Found: 0.248

---

# Test system: K5 (Thyroid Gland Carcinoma)
# Run description: combination Emax (second highest fraction inhibited in the dose matrix, 72 h); higher = more inhibition; extreme values may be limits of the assay
Reported property: combination Emax
Lab note: jot the number down without any unit.

Lookup: # get_value(readout='combination Emax', item= Cc1c2c(nn1C)CSCc1cc(n(C)n1)CSc1cc(c3ccccc3c1)OCCCc1c(C(=O)O)n(C)c3c-2c(Cl)ccc13 [AZD5991] + Cc1cc2ncnn2cc1Nc1ncc2c(n1)n(C1CCOCC1)c(=O)n2C [AZD7648] (first compound max 1 µM, 7x7, partner max 10 µM) )
Found: 0.351

Lookup: Give the measured combination Emax of CC1(C)CCC(CN2CCN(c3ccc(C(=O)NS(=O)(=O)c4ccc(NCC5CCOCC5)c([N+](=O)[O-])c4)c(Oc4cnc5[nH]ccc5c4)c3)CC2)=C(c2ccc(Cl)cc2)C1 [Venetoclax] + CCN(CCO)CCCOc1ccc2c(Nc3cc(CC(=O)Nc4cccc(F)c4)[nH]n3)ncnc2c1 [AZD2811] (first compound max 1 µM, 7x7, partner max 1 µM) .
Found: 0.413

Lookup: I have this compound here, Cc1nc(-c2cn3c(n2)-c2ccc(-c4cnn(C(C)(C)C(N)=O)c4)cc2OCC3)n(C(C)C)n1 [Taselisib] + O=C(Nc1ccc2[nH]nc(-c3ccncc3)c2c1)[C@@H]1CCN(CC(=O)N2CCN(c3ccc(-c4ncccn4)cc3)CC2)C1 [SCH772984] (first compound max 10 µM, 7x7, partner max 5 µM) , and I need its recorded combination Emax.
Found: 0.954
